Source listed as patent US4370330A.

Would you kindly list LD50 at 336 h for each of these molecules?
# Procedure text: acute toxicity after oral application, LD50
# Condition context: mouse, in vivo, po; read-out: Acute toxicity LD50, 14 days
The answer is to be given in mg/kg; state only the numeric part.

For the molecule shown here, COc1cc(CN2CCN(c3cc(C(F)(F)F)cc(C(F)(F)F)c3)CC2)cc(OC)c1OC , give the reported LD50 at 336 h. 280

Also COc1cc(CN2CCN(c3ccc(C)c(C)c3)CC2)cc(OC)c1OC , if possible. 263

Also, COc1cc(CN2CCN(c3c(C)cccc3C)CC2)cc(OC)c1OC please. 265

What would you report for COc1cc(CN2CCN(c3cc(OC)c(OC)c(OC)c3)CC2)cc(OC)c1OC ? 348

Another molecule: COc1cc(CN2CCN(c3ccc(Cl)c(C(F)(F)F)c3)CC2)cc(OC)c1OC 283

Subsequent entry: COc1cc(CN2CCN(c3ccc4c(c3)OCO4)CC2)cc(OC)c1OC 296

----------
# Procedure text: acute toxicity after oral application, LD50
# Condition context: in vivo; mouse, oral, 24 hours; read-out: oral acute toxicity (LD50) after 24 hours
Value type: LD50 at 24 h (mg/kg)
// note: answer is a bare numeric in mg/kg

So what does the record say about LD50 at 24 h for COc1cc(CN2CCN(c3ccccc3)CC2)cc(OC)c1OC.Cl [Example 21] ? 320

----------
# Procedure text: acute toxicity after oral application, LD50
# Condition context: in vivo; Table 3; mouse oral, 24 h; read-out: Acute toxicities LD50, 24 h
# Source text: The therapeutic range of the substances according to the invention can again be described as excellent, since the LD50 values lie in a favorable range, as is shown by the results of acute toxicity tests on the mouse after oral application.
Counter-ions that a name gives are not always drawn.
Value type: LD50 at 24 h (mg/kg)
Just the number please, in mg/kg, no unit attached.

Record request: LD50 at 24 h value, item COc1cc(CN2CCN(c3ccccc3C)CC2)cc(OC)c1OC 457

Now give it for COc1cc(CN2CCN(c3ccccc3Cl)CC2)cc(OC)c1OC.Cl.Cl too. 295

Then COc1cccc(N2CCN(Cc3cc(OC)c(OC)c(OC)c3)CC2)c1.Cl ? 411

For COc1cc(CN2CCN(c3ccc(F)cc3)CC2)cc(OC)c1OC.Cl then? 350

Continue with COc1cc(CN2CCN(c3ccccc3[N+](=O)[O-])CC2)cc(OC)c1OC.Cl 274

Proceed to COc1cc(CN2CCN(c3ccc(C)cc3)CC2)cc(OC)c1OC [p. Methyl-, hydrochloride] 459

// query: CCOc1ccccc1N1CCN(Cc2cc(OC)c(OC)c(OC)c2)CC1.Cl.Cl 411

COc1cc(CN2CCN(c3cccc(C)c3)CC2)cc(OC)c1OC.Cl ? 452

Next compound: CCc1ccccc1N1CCN(Cc2cc(OC)c(OC)c(OC)c2)CC1.Cl.Cl 456

How about COc1cc(CN2CCN(c3ccc(O)cc3)CC2)cc(OC)c1OC.Cl [p. Hydroxy-] ? 306

----------
Answer each item with its documented LD50 at 336 h.
# Procedure text: acute toxicity after oral application, LD50
# Condition context: in vivo; Table 3; mouse oral, 14 days; read-out: Acute toxicities LD50, 14 days
Field: numeric (mg/kg). Do not append units.

Param item = COc1cc(CN2CCN(c3ccccc3C)CC2)cc(OC)c1OC [o. Methyl-] ; retrieve measured LD50 at 336 h. 311

Try this compound too: COc1cc(CN2CCN(c3ccc(O)cc3)CC2)cc(OC)c1OC.Cl [p. Hydroxy-] 245

Entry COc1cc(CN2CCN(c3ccccc3[N+](=O)[O-])CC2)cc(OC)c1OC.Cl [o. Nitro-] please 201

Next entry: COc1cccc(N2CCN(Cc3cc(OC)c(OC)c(OC)c3)CC2)c1.Cl [m. Methoxy-] 285

Can you handle CCc1ccccc1N1CCN(Cc2cc(OC)c(OC)c(OC)c2)CC1.Cl.Cl [o. Ethyl-] next? 311
